# Protocol notes: Selectivity index, ratio of IC50 for human MRC5 cells to IC50 for human MCF7 cells by CellTiter Glo luminescent assay
# Format: toxicity
# Settings: MRC5 cells versus MCF7 cells, read-out: Ratio IC50
Listed next: entries and their corresponding selectivity ratio.
Enter the number alone.

Examples with answers:
> print(dat)
                           molecular.string  obs.value
1  C=C(CC)C(=O)c1ccc(OCC(=O)N2CCN(S(=O)(=O)c3ccc(OC)cc3)CC2)c(Cl)c1Cl       1.78
2  C=C(CC)C(=O)c1ccc(OCC(=O)NC2CCN(S(=O)(=O)c3ccc(OC)cc3)CC2)c(Cl)c1Cl       33.8

Ask: // selectivity ratio lookup, key: `C=C(CC)C(=O)c1ccc(OCC(=O)NC2CCN(S(=O)(=O)c3cc(Cl)ccc3OC)CC2)c(Cl)c1Cl`
Result: 9.27
